Hey, just so you know, these numbers are from PubChem BioAssay AID1671190.

- target: Polyunsaturated fatty acid lipoxygenase ALOX12 (Homo sapiens) (UniProt P18054)
- Sequence (P18054 whole entry, looked up): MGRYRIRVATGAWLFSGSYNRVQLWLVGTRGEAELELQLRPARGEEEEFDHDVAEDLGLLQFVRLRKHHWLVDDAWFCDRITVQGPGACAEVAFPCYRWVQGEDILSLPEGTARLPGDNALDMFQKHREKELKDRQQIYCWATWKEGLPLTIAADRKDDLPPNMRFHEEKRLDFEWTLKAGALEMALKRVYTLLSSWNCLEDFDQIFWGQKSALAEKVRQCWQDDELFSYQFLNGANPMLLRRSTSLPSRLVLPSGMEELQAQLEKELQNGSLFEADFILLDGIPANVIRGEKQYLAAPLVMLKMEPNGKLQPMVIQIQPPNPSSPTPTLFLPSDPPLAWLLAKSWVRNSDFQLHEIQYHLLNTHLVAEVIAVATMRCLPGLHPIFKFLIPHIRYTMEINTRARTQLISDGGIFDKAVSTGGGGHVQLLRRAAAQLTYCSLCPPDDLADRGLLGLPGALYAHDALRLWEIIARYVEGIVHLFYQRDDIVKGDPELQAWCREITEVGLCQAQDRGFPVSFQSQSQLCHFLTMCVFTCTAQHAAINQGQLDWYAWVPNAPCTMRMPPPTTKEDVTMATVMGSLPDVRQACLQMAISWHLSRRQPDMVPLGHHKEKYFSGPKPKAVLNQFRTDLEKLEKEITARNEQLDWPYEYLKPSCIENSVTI
- experiment_summary: Primary qHTS assay for inhibitors of human arachidonate 12S-lipoxygenase (ALOX12): Round 2
- test_conditions: purified 12hLO, xylenol orange hydroperoxide absorbance; series mostly up to 108 µM
Out of some 580,000 compounds screened, about 6,100 (1.1%) were called active. Roughly 15% stayed inconclusive and do not appear here. Calls follow the shape of the dose curve; as a rule, active = well fitted inhibition curve with a large enough effect; inconclusive = small, poorly fitted or top-dose-only effect, or another doubt; inactive = no such curve, though single readings can be large or run the other way. The full list was thinned out, with actives kept by preference.
Please state which outcome applies, choosing from yes for active, no for inactive

Answer briefly: the call reported for COc1ccc(OC)c(CNC(=O)c2cc3c(s2)-c2c(C)cccc2OC3)c1 in this assay.
no

Answer briefly: the call reported for N#Cc1ccccc1CN1C(=O)S/C(=C/c2cccn2-c2cccc(C(=O)O)c2)C1=O in this assay.
no

Answer briefly: the call reported for Cc1[nH]c2ccccc2c1C(=O)C(C)Sc1ccc2c(c1)OCCCO2 (centres undefined) in this assay.
yes

Answer briefly: the call reported for N#Cc1ncn(CCC(=O)Nc2ccc(F)c(F)c2)n1 in this assay.
no

Answer briefly: the call reported for c1ccc(-c2noc(-c3ccco3)n2)cc1 in this assay.
no

Answer briefly: the call reported for O=C(NCc1ccccc1)c1cc(-c2cccc(Cl)c2)on1 in this assay.
no

Answer briefly: the call reported for CC(C)N(C(=O)Cn1c(CN2CCOCC2)nc2ccccc21)c1ccccc1 in this assay.
no

Answer briefly: the call reported for CC[C@@H]1Cc2cc(O)ccc2C2=C1c1ccc(O)cc1C[C@H]2CC in this assay.
yes

Answer briefly: the call reported for COc1cccc(-c2cc(C(=O)NCCC(C)C)c3ccccc3n2)c1 in this assay.
no

Answer briefly: the call reported for Fc1ccccc1N1CCN(c2nc(-c3cccnc3)nc3ccccc23)CC1 in this assay.
no

Answer briefly: the call reported for CCCCc1c/c(=N\O)oc2cc3occ(C)c3cc12 in this assay.
yes

Answer briefly: the call reported for Cc1ccnc(-c2cccc([N+](=O)[O-])c2)[n+]1[O-] in this assay.
no

Answer briefly: the call reported for COc1ccc(C2=C(C)C(=NC(C)C34CC5CC(CC(C5)C3)C4)NS2(=O)=O)cc1 (centres undefined) in this assay.
no

Answer briefly: the call reported for COc1ccccc1NC(=O)C(=O)NCc1ccccc1 in this assay.
no

Answer briefly: the call reported for O=C(Cn1c(=O)n(CCc2ccccc2)c(=O)c2sccc21)c1ccc(Cl)cc1 in this assay.
yes

Answer briefly: the call reported for O=C(CSc1nnc(-c2ccc(Cl)cc2)o1)N1CCC(c2ccccc2)=N1 in this assay.
no

Answer briefly: the call reported for CCc1ccc(CN(C)C(=O)Cn2cnc3c2c(=O)n(C)c(=O)n3C)cc1 in this assay.
no

Answer briefly: the call reported for O=C(c1cccc(Br)c1)N1CCC(CCc2ccc(O)cc2)CC1 in this assay.
no

Answer briefly: the call reported for Cc1ccc(C)c(OCc2ccc(-c3nc(C#N)c(NC(C)C)o3)o2)c1 in this assay.
no

Answer briefly: the call reported for O=C(COC(=O)CNC(=O)C1CCCCC1)NCc1ccccc1 in this assay.
no

Answer briefly: the call reported for C=CCSc1nc2c(c(=O)[nH]c(=O)n2C)n1CCCCC in this assay.
no

Answer briefly: the call reported for COC(=O)CNC(=O)c1cccc(C(F)(F)F)c1 in this assay.
no

Answer briefly: the call reported for O=C(NCc1ccccc1)c1cccc(NC(=O)C2CCCCC2)c1 in this assay.
no

Answer briefly: the call reported for CCCCc1ccc(C(=O)Cn2nnc(-c3cccc(F)c3)n2)cc1 in this assay.
no

Answer briefly: the call reported for CC(C)(C)NC(=O)C(=O)NN=C1CCCCCCC1 in this assay.
no

Answer briefly: the call reported for Cc1ccc(NC(=O)CCC2CCCC2)c(C)c1 in this assay.
no

Answer briefly: the call reported for Cc1cccc(Cn2c(=O)n(CCC(=O)NCCc3ccc(Cl)cc3)c(=O)c3sccc32)c1 in this assay.
no

Answer briefly: the call reported for COc1ccccc1-c1cnc(Nc2ccncc2)c2c1CCO2 in this assay.
no

Answer briefly: the call reported for CC(C)Oc1ccc(-c2cc(C(=O)NCc3ccncc3)c3ccccc3n2)cc1 in this assay.
no

Answer briefly: the call reported for CCCOc1cccc(-c2cc(C(=O)OC)c3ccccc3n2)c1 in this assay.
no

Answer briefly: the call reported for Cc1nn(Cc2cccc(F)c2)c(C)c1NS(=O)(=O)c1c(C)nn(C)c1C in this assay.
no

Answer briefly: the call reported for Cc1ccc(NC(=O)C2=Cc3sc4c(c3CS2)CCCC4)c(C)c1 in this assay.
yes

Answer briefly: the call reported for CC(Sc1ccc2c(c1)OCCCO2)C(=O)O (centres undefined) in this assay.
no

Answer briefly: the call reported for Cc1[nH]c2ccccc2c1C(=O)C(C)Sc1nnc(C2CC2)o1 (centres undefined) in this assay.
no
